The origin of these recorded values is PubChem BioAssay (NCI).

# ASSAY_PROTOCOL: NCI Yeast Anticancer Drug Screen. Data for the sgs1 mgt1 strain (AID 161);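 note: 0% = growth of cultures given vehicle only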
# EXPERIMENTAL_PARAMETERS: S. cerevisiae sgs1 mgt1 strain, at 50.0 µM, hits give high values
The panel holds about 79,000 compounds, 15% with a hit somewhere; the sample as a whole holds those more often.
ASSAY_METRIC: growth inhibition (%)
Numbers only here, please. The scale is %.

Q) Reported growth inhibition, compound Cc1ccc2c(c1)nc1n2C(c2c(F)cccc2F)SC1 (centres undefined) : ____
A) 26.9

---

# ASSAY_PROTOCOL: NCI Yeast Anticancer Drug Screen. Data for the bub3 strain (AID 167)
# EXPERIMENTAL_PARAMETERS: S. cerevisiae bub3 mutant strain, at 50.0 µM, hits give high values
Compounds without any hit were thinned out: in the full panel of roughly 79,000, 15% have a hit.
ASSAY_METRIC: growth inhibition (%)
Please state the figure in %; there is no need to write the unit.

Some entries whose results are on file:
CCCCC1(C(NC(=O)c2ccccc2Cl)c2ccncc2)C(=O)N(c2ccccc2)N(c2ccccc2)C1=O (stereo unspecified) | 33.5
CC1(O)OC(=O)c2ccc3ccccc3c21 (stereo unspecified) | -20.8
CC(C)C(O)C(C)N (stereo unspecified) | 3.2
NCC(NC(=O)OCc1ccccc1)C(=O)O (stereo unspecified) | 5.7
C[C@@H]1O[C@]2(O)[C@@H]3CCCN3S(=O)(=O)CCN2C1=O | -11.3

Q) Please give the measured growth inhibition for this compound: `O=C(O)CCCCCCc1ccc2ccccc2n1`
A) 7.05

Q) Recorded growth inhibition of `C=CCOC(=O)/C=C\c1ccccc1OC` , please.
A) 14.8

Q) May I ask what growth inhibition has been recorded for `COc1ccc2[nH]c(=O)c(C(C)=O)c(O)c2c1` ?
A) 7.15

Q) Please look up its growth inhibition: `NC(=O)NNC(=O)Cc1ccccc1`
A) -0.95

Q) Requested field: growth inhibition. Item: `Nc1nc(N)c(CCCCc2ccc([N+](=O)[O-])cc2)c(N)n1`
A) -1.4

Q) Please look up its growth inhibition: `CCCCCCCCCCCCCCCCOc1ccc(S(=O)(=O)NC(C)(C)C)cc1[N+](=O)[O-]`
A) 20.6

Q) Field request: growth inhibition | item: `CC(=O)Nc1cccc(N=NN(C)C)c1`
A) 34.4

Q) Entry under review: CCCCC1(N=[N+]=[N-])C(=O)c2cccc3c2N(CCC3)C1=O (stereo unspecified) . Reported growth inhibition?
A) 15.6

Q) Please give the measured growth inhibition for this compound: `O=C(COc1ccc(Cl)cc1)Nc1ccc(S(=O)(=O)O)c2ccccc12`
A) 1.65

Q) Form field: reported growth inhibition of `N#Cc1c(O)c(-c2ccccc2)c(=O)n2c1[nH]c1ccccc12`
A) 2.6

Q) Report growth inhibition for `Cc1[nH]n(-c2ncc(C#N)c(=O)[nH]2)c(=O)c1CCO` please.
A) -11.8

Q) Any idea what growth inhibition was measured for CC(=O)c1ccc(N2C(=O)CC(NC3CCCCC3)C2=O)cc1 (stereo unspecified) ?
A) 1.65

Q) Which growth inhibition is reported for this compound? `CCOCc1cnc(SC)nc1N`
A) -0.15

Q) Could you share which growth inhibition value was measured for `Cn1c(=O)c2c(nc(NCCNc3nc4c(c(=O)n(C)c(=O)n4C)n3C)n2C)n(C)c1=O` ?
A) -20.8

Q) Entry under review: `COc1ccc(NC(=O)Nc2ccc(SC)cc2)c(Cl)c1` . Reported growth inhibition?
A) 19.5

Q) Name the recorded growth inhibition for O=C1C(=Cc2ccco2)C(=O)C2CCCCC12 (stereo unspecified) .
A) 2.4

Q) GET /values?readout=growth inhibition&item= `COCC(=O)c1ccccc1`
A) -0.65

---

Catalogue of growth inhibition readings, one per entry.
# ASSAY_PROTOCOL: NCI Yeast Anticancer Drug Screen. Data for the bub3 strain (AID 167)
# EXPERIMENTAL_PARAMETERS: S. cerevisiae bub3 mutant strain, at 50.0 µM, hits give high values
# Description: Growth inhibition of yeast strains with defined genetic alterations is measured as a screen for potential anti-cancer activity. Selected strains with alterations in DNA damage repair or cell cycle control were exposed to compounds and growth inhibition was measured relative to vehicle treated controls. The strain used in this assay is bub3
This is part of a sample that, as a whole, favours compounds with a hit. Of some 79,000 tested, about 15% had one in any assay.
Give the value, in units of %, as a plain number.

CCOC(=O)/C(=C/c1cccc2ccccc12)P(=O)(OCC)OCC | 37.1
CC(C)(C)OC(=O)NC(CSCc1ccc(C(=O)c2ccccc2)cc1)C(=O)O (centres undefined) | -12.8
C[n+]1c(I)ccc2ccccc21 | 15.9
SCc1ccc(CS)s1 | 23.2
CC(=O)NC(Cc1c[nH]c2ccccc12)C(=O)Oc1ccc([N+](=O)[O-])cc1 (centres undefined) | 9.3
CCOC(=O)C1=NNCC1c1cccc(Cl)c1 (centres undefined) | -13.2

Q) Consider the compound NC(N)=NC1NCC(=O)S1 (centres undefined) and give its measured growth inhibition.
A) 7.15

Q) Fill blank: measured growth inhibition of the compound `O=c1nc(-c2ccccc2)cc(Cc2ccc3ccccc3n2)[nH]1` is ____.
A) 47

Q) Fill blank: measured growth inhibition of the compound `Cc1cc(/C=C2\SC(=S)NC2=O)cc(C)c1O` is ____.
A) 22.8

Q) Entry `O=[N+]([O-])c1ccc(COP(=O)(OCc2ccc([N+](=O)[O-])cc2)OCc2ccc([N+](=O)[O-])cc2)cc1` has what growth inhibition?
A) 25.3

Q) Item CC(COc1ccc(Cl)cc1)OS(=O)(=O)CCCl (centres undefined) has what recorded growth inhibition?
A) -1.1

---

Quick reference for growth inhibition among some molecules
# ASSAY_PROTOCOL: NCI Yeast Anticancer Drug Screen. Data for the bub3 strain (AID 167)
# EXPERIMENTAL_PARAMETERS: S. cerevisiae bub3 mutant strain, at 50.0 µM, hits give high values
This is part of a sample that, as a whole, favours compounds with a hit. Of some 79,000 tested, about 15% had one in any assay.
Note: unit % is implicit; provide only the numeric part.

Reference set (3 entries):
NC(=O)CCC1CCCCN1 (stereo not given) | 1.85
O=c1ccc2ccc(OP(=O)(O)O)cc2o1 | -34.7
CC1OC(OC2C(OC3C(OC4CCC5(C)C(CCC6(C)C5CC=C5C7CC(C)(C)CCC7(C(=O)O)CCC56C)C4(C)C)OCC(O)C3O)OC(CO)C(O)C2O)C(O)C(O)C1O (stereo not given) | 93.8

Q) Fill in: growth inhibition of `Cc1ccc(CC(=O)N(C)C)c([N+](=O)[O-])c1` is ___
A) -8.45

Q) What measured growth inhibition goes with `NS(=O)(=O)c1ccc(N2C(=O)C(=O)N(c3ccccc3)C2=S)cc1` ?
A) -3.75

Q) # lookup: growth inhibition of `CC(=NC1CCCCC1)c1ccccc1O`
A) 13.6

Q) Could you share which growth inhibition value was measured for CC1(C)CC[C@]2(C(=O)O)CC[C@]3(C)C(=CC[C@@H]4[C@@]5(C)CC[C@H](OC6OC(CO)C(O)C(O)C6OC6OC(CO)C(O)C(O)C6O)C(C)(C)[C@@H]5CC[C@]43C)[C@@H]2C1 (stereo not given in full) ?
A) 84.3

Q) Item under review: `N#CC[N+]1(Cc2ccccn2)CCCC1` . Reported growth inhibition?
A) -2.5

Q) Please report the recorded growth inhibition for `C=CC(=O)OCCOCCOC` .
A) -18.6

Q) Request the reported growth inhibition associated with `CCOC(=O)c1ccc(NC(=S)N2CCOCC2)cc1`
A) 2.55

Q) Looking for the measured growth inhibition of CCC(O)CNCc1c2ccccc2cc2ccccc12 (stereo not given) , can you help?
A) 1.95

Q) // query growth inhibition value for entry `O=[N+]([O-])c1ccc(CCn2cnc3c(N(CCO)CCO)ncnc32)cc1`
A) 6.95

Q) Which measured growth inhibition value corresponds to `CCN(CC)S(=O)(=O)c1ccc(N)cc1` ?
A) -2.2

Q) What does the data say about its growth inhibition? Entry: `CCOC(=O)c1ccc(-c2ccccc2)cc1`
A) -12.2

Q) growth inhibition for `COC(=O)C(=O)c1c(-c2ccc(O)c(OC)c2)[nH]c2[nH]n(-c3ccccc3)c(=O)c2c1=O` ?
A) 14.8

---

// growth inhibition lookup, one value per entry
# ASSAY_PROTOCOL: NCI Yeast Anticancer Drug Screen. Data for the sgs1 mgt1 strain (AID 161);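 note: 0% = growth of cultures given vehicle only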
# EXPERIMENTAL_PARAMETERS: S. cerevisiae sgs1 mgt1 strain, at 50.0 µM, hits give high values
The panel holds about 79,000 compounds, 15% with a hit somewhere; the sample as a whole holds those more often.
Dear colleague, please return just the value in %, with no unit written.

O=c1c(SCc2ccc(Cl)cc2Cl)c(SCc2ccc(Cl)cc2Cl)cnn1-c1ccccc1 | 7.3
O=C(O)C1(c2ccccc2)CC1 | 13.1
COc1cc2ccc3c[n+](C)ccc3c2cc1OC | -13.4
Cc1cc(CC(=S)[S-])[n+](C)c(CC(=S)S)c1 | -14.1
CCOC(=O)c1c(-c2ccc(OC)cc2)c(C#N)c(=S)n(C2OC(CO)C(O)C(O)C2O)c1C (centres undefined) | 3.05

Q) Fill in: growth inhibition of `O=C(CN(Cc1ccccc1)Cc1ccccc1)NC(=O)c1ccccc1` is ___
A) 8.45

Q) Returns the measured growth inhibition for the input compound. Input: `CC1(C)COC(c2ccc(CC(Cc3ccc(C4(C(C)(C)C)OCC(C)(C)CO4)cc3)C(=O)O)cc2)(C(C)(C)C)OC1`
A) 3.1

Q) # input compound: `CCc1cccc(C)c1NC(=O)C(=O)CC(=O)CCCO` ; wanted: its growth inhibition
A) 27.6

Q) For the compound `Cc1cn(-c2c(C)c(C)c(-n3c(C)ccc3C)c(C)c2C)cc1C` , what growth inhibition is on record?
A) -6.2
